# targetOrSystem: JAK3 (Homo sapiens, UniProt P52333)
# Construct: made in house; host or cells: SF9 insect cells (baculovirus)
# Sequence (P52333 783-1124): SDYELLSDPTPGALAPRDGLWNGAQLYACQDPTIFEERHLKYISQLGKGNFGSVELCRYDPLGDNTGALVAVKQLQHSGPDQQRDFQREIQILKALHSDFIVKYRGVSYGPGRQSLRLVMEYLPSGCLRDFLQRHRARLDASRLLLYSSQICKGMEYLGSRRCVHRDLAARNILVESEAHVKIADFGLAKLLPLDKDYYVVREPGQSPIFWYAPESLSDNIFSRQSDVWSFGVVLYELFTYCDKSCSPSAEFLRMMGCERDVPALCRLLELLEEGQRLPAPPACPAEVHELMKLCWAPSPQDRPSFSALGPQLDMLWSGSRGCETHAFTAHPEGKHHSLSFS
# measurementDescription: JAK3 inhibition (Table 4)
# Type: biochemical
# conditionSet: read-out: JAK3 Ki
pKi: −log10 of the molar value.
observationType: pKi

Some solved cases for reference:
Cc1nc2cnc3[nH]ccc3c2n1C1CCC(NC(=O)CC#N)C1 (racemic) [Example 728] :: 8.65
Cc1nc2cnc3[nH]ccc3c2n1[C@H]1CC[C@H](N2CCC(O)C2)CC1 (mixture of isomers) [Example 597] :: 6.08
CN1CCC[C@H]1CN1CCC(n2cnc3cnc4[nH]ccc4c32)CC1 [Example 177] :: 5.85
CC(C)NC(=O)Cc1nc2cnc3[nH]ccc3c2n1C1CCCOC1 (racemic) [Example 963] :: 6.93
O=C(C1CC1)N1CCC[C@@H](n2cnc3cnc4[nH]ccc4c32)C1 [Example 75] :: 7.22

I: CS(=O)(=O)NCc1nc2cnc3[nH]ccc3c2n1C1CCN(Cc2ccccc2)CC1 [Example 202]
II: CCN1CC[C@@H](n2cnc3cnc4[nH]ccc4c32)[C@@H](F)C1 [Example 523]
Sort I and II by pKi descending and give the first. Please indicate the selected item by its label.
I
(I: 7.22, II: 6.52)

A: OCc1nc2cnc3[nH]ccc3c2n1C1CCN(Cc2ccccc2)CC1 [Example 22]
B: O=C(Cc1nc2cnc3[nH]ccc3c2n1C1CCNCC1)NC1CCCC1 [Example 265]
Recorded pKi values differ for A and B ; which one is higher? Answer format: the label of the selected item.
A
(A: 7.97, B: 7.18)

I: O=C(NCCc1nc2cnc3[nH]ccc3c2n1C1CCCCC1)C1CC1(F)F (racemic) [Example 515]
II: CS(=O)(=O)NCc1nc2cnc3[nH]ccc3c2n1C1CCCCC1 [Example 200]
I'd appreciate it if you could identify which of I and II has the greater pKi. State your choice using its label.
II
